Target: human PD-L1 / human PD-1 interaction (Homo sapiens, UniProt Q9NZQ7)
Construct: ACRO Biosystems (PD-1, biotin)
Sequence (Q9NZQ7 19-239 limits assumed): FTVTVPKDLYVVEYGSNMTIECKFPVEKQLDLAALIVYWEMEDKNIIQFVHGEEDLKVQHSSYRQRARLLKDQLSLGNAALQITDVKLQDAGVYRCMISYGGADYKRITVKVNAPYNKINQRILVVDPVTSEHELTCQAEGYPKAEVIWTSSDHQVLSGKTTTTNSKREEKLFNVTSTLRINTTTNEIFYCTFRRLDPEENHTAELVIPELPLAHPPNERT
Assay: ELISA of PD-1/PD-L1 interaction
measurement_name: IC50

Cc1c(OCCCN2CCC[C@H]2CO)cccc1-c1cccc2c1CC[C@@H]2Oc1cc(OCc2cncc(C#N)c2)c(CN[C@H](C(=O)O)[C@@H](C)O)cc1Cl: < 5 nM
CN1CCC(COc2cccc(-c3cccc4c3CC[C@@H]4Oc3cc(OCc4cncc(C#N)c4)c(CNC[C@@H]4CCC(=O)N4)cc3Cl)c2Cl)C1 (stereo partly drawn): < 5 nM

Exercise: What does the record list as IC50 for Cc1c(OCCCN2CCC(F)CC2)cccc1-c1cccc2c1CC[C@@H]2Oc1cc(OCc2cncc(C#N)c2)c(CNCC2CCC(=O)N2)cc1Cl (stereo partly drawn) ?
Solution: < 5 nM

* * *

Biological target: human PD-L1 / human PD-1 interaction (Homo sapiens, UniProt Q9NZQ7)
Construct: ACRO Biosystems (PD-1, biotin)
Assay: ELISA of PD-1/PD-L1 interaction
# IC50 per record follows

These recorded examples may help you get a feel for the data.
CCOc1cc(O[C@H]2CCc3c(-c4cccc(OCCCN5CCC(F)CC5)c4C)cccc32)c(Cl)cc1CN[C@@H](CO)C(=O)O: < 5 nM
CC(=O)OC1CCN(CCCOc2cccc(-c3cccc4c3CC[C@@H]4Oc3cc(OCc4cncc(C#N)c4)c(CN[C@@H]4CCCC[C@@H]4O)cc3Cl)c2Cl)CC1: < 5 nM
CC(CO)(NCc1cc(Cl)c(O[C@H]2CCc3c(-c4cccc(OCCCN5CCCCC5)c4Cl)cccc32)cc1OCc1cncc(C#N)c1)C(=O)O (stereo partly shown): < 5 nM
Cc1c(OCCCN2CCC(F)CC2)cccc1-c1cccc2c1CC[C@@H]2Oc1cc(OCc2cncc(C#N)c2)c(CN[C@H](C(=O)O)[C@@H](C)O)cc1Cl: < 5 nM
N#Cc1cncc(COc2cc(O[C@H]3CCc4c(-c5cccc(OCCCN6CC7(CC(O)C7)C6)c5Cl)cccc43)c(Cl)cc2CN[C@H]2CCC[C@@H]2O)c1: < 5 nM
N#Cc1cncc(COc2cc(O[C@H]3CCc4c(-c5cccc(OCCCN6CC7(CC(O)C7)C6)c5Cl)cccc43)c(Cl)cc2CNC[C@H]2CCC(=O)N2)c1: < 5 nM
Cc1c(OCCCN2CCC(O)CC2)cccc1-c1cccc2c1CC[C@@H]2Oc1cc(OCc2cncc(C#N)c2)c(CN[C@@H]2CCC[C@H]2O)cc1Cl: < 5 nM
CC(C)N1CCC(COc2cccc(-c3cccc4c3CC[C@@H]4Oc3cc(OCc4cncc(C#N)c4)c(CNC[C@@H]4CCC(=O)N4)cc3Cl)c2Cl)C1 (stereo partly shown): < 5 nM

Exercise: What does the record list as IC50 for `CCOc1cc(O[C@H]2CCc3c(-c4cccc(OCCCN5CCC5(C)C)c4C)cccc32)c(Cl)cc1CNCCO` ?
Solution: < 5 nM

Exercise: What does the record list as IC50 for `CCOC(=O)[C@](C)(CO)NCc1cc(Cl)c(O[C@H]2CCc3c(-c4cccc(OCCCN5CC(O)C5)c4Cl)cccc32)cc1OCc1cncc(C#N)c1` ?
Solution: < 5 nM

Exercise: What does the record list as IC50 for `C[C@@](CO)(NCc1cc(Cl)c(O[C@@H]2c3cccc(-c4cccc(OCCCN5CC(O)C5)c4Cl)c3C[C@@H]2F)cc1OCc1cncc(C#N)c1)C(=O)O` ?
Solution: < 5 nM

Exercise: What does the record list as IC50 for `Cc1c(OCCCN2CCC(F)CC2)cccc1-c1cccc2c1CC[C@@H]2Oc1cc(OCc2cc(C#N)cc(C#N)c2)c(CN[C@@H]2CCOC[C@H]2O)cc1Cl` ?
Solution: < 5 nM

Exercise: What does the record list as IC50 for `Cc1c(OCCCN2CCC(F)CC2)cccc1-c1cccc2c1CC[C@@H]2Oc1cc(OCc2cncc(C(N)=O)c2)c(CN(C)CCC(=O)O)cc1Cl` ?
Solution: < 5 nM

* * *

Target: human PD-L1 / human PD-1 interaction (Homo sapiens, UniProt Q9NZQ7)
Construct: ACRO Biosystems (PD-1, biotin)
Assay: ELISA of PD-1/PD-L1 interaction
measurement_name: IC50

These recorded examples may help you get a feel for the data.
N#Cc1cncc(COc2cc(O[C@H]3CCc4c(-c5cccc(OCCCN6CC7(C6)CC(F)(F)C7)c5Cl)cccc43)c(Cl)cc2CN[C@@H]2CCC[C@@H]2O)c1: < 5 nM
N#Cc1cncc(COc2cc(O[C@H]3CCc4c(-c5cccc(OCCCN6CCC(F)CC6)c5Cl)cccc43)c(Cl)cc2CN[C@H]2CC[C@@H]2O)c1: < 5 nM
CCOc1cc(O[C@H]2CCc3c(-c4cccc(OCCCN5CC(O)C5)c4Cl)cccc32)c(Cl)cc1CN[C@@](C)(CO)C(=O)O: < 5 nM

Exercise: What does the record list as IC50 for `N#Cc1cncc(COc2cc(O[C@H]3CCc4c(-c5cccc(OCCCN6CCC(F)CC6)c5Cl)cccc43)c(Cl)cc2CN[C@H]2CCC[C@@H]2O)c1` ?
Solution: < 5 nM

Exercise: What does the record list as IC50 for `N#Cc1cncc(COc2cc(O[C@H]3CCc4c(-c5cccc(OCCCN6CCC(F)CC6)c5Cl)cccc43)c(Cl)cc2CN[C@H]2CCC[C@H]2O)c1` ?
Solution: < 5 nM

Exercise: What does the record list as IC50 for `Cc1c(OCCCN2CCC2)cccc1-c1cccc2c1CC[C@@H]2Oc1cc(OCc2cc(C#N)cc(C#N)c2)c(CNC[C@H]2CCC(=O)N2)cc1Cl` ?
Solution: < 5 nM

* * *

Target: human PD-L1 / human PD-1 interaction (Homo sapiens)
Construct: ACRO Biosystems (PD-1, biotin)
Assay: ELISA of PD-1/PD-L1 interaction
pIC50: −log10 of the molar value.
# pIC50 per record follows

CN1CCC(COc2cccc(-c3cccc4c3CC[C@@H]4Oc3cc(OCc4cncc(C#N)c4)c(CN[C@@H]4CCCC[C@@H]4O)cc3Cl)c2Cl)C1 (stereo partly drawn): > 8.30
C[C@@H](O)[C@H](NCc1cc(Cl)c(O[C@H]2CCc3c(-c4cccc(OCCCN5CCC(C)(F)CC5)c4Cl)cccc32)cc1OCc1cncc(C#N)c1)C(=O)NS(C)(=O)=O: > 8.30
Cc1c(OCCCN2CCC(F)CC2)cccc1-c1cccc2c1CC[C@@H]2Oc1cc(OCc2cc(C#N)cc(C#N)c2)c(CNC2CCNC(=O)C2)cc1Cl (stereo partly drawn): > 8.30

Exercise: Lab request: please report pIC50 under test system human PD-L1 / human PD-1 interaction (Homo sapiens) for `Cc1c(OCCCN2CCC(O)CC2)cccc1-c1cccc2c1CC[C@@H]2Oc1cc(OCc2cncc(C#N)c2)c(CNC2(C(=O)O)CCC2)cc1Cl`
Solution: > 8.30

Exercise: Lab request: please report pIC50 under test system human PD-L1 / human PD-1 interaction (Homo sapiens) for CC(CO)(NCc1cc(Cl)c(O[C@H]2CCc3c(-c4cccc(OCCCN5CC(O)C5)c4Cl)cccc32)cc1OCc1cccnc1)C(=O)O (stereo partly drawn)
Solution: > 8.30

Exercise: Lab request: please report pIC50 under test system human PD-L1 / human PD-1 interaction (Homo sapiens) for `Cc1c(OCCCN2CCC(O)CC2)cccc1-c1cccc2c1C[C@H](F)[C@@H]2Oc1cc(OCc2cncc(C#N)c2)c(CN[C@@](C)(CO)C(=O)O)cc1Cl`
Solution: > 8.30

* * *

Biological target: human PD-L1 / human PD-1 interaction (Homo sapiens)
Construct: ACRO Biosystems (PD-1, biotin)
Assay: ELISA of PD-1/PD-L1 interaction
Description: […] PBS overnight at 4° C. […] The absorbance was read at 450 nm using a micro-plate spectrophotometer.
# IC50 per record follows

These recorded examples may help you get a feel for the data.
Cc1c(OCCCN2CCC(C)(F)CC2)cccc1-c1cccc2c1CC[C@@H]2Oc1cc(OCc2cc(C#N)cc(C#N)c2)c(CN[C@@H]2CCC[C@H]2O)cc1Cl: 5 to 500 nM
N#Cc1cncc(COc2cc(O[C@H]3CCc4c(-c5cccc(OCCCN6CCC(F)CC6)c5Cl)cccc43)c(Cl)cc2CN2CC(C(=O)O)C2)c1: < 5 nM
N#Cc1cncc(COc2cc(O[C@H]3CCc4c(-c5cccc(OCCCN6CCC(O)CC6)c5Cl)cccc43)c(Cl)cc2CN[C@@H]2CCCC[C@@H]2O)c1: < 5 nM
CCOc1cc(O[C@H]2CCc3c(-c4cccc(OCCCN5[C@H](C)CC[C@H]5C)c4C)cccc32)c(Cl)cc1CN1CCCC[C@H]1C(=O)O: 5 to 500 nM
CC(C)(O)CNCc1cc(Cl)c(O[C@H]2CCc3c(-c4cccc(OCCCN5CC(O)C5)c4Cl)cccc32)cc1OCc1cncc(C#N)c1: < 5 nM
CN1CCC(COc2cccc(-c3cccc4c3CC[C@@H]4Oc3cc(OCc4cncc(C#N)c4)c(CNC[C@H]4CCC(=O)N4)cc3Cl)c2Cl)C1 (stereo partly shown): < 5 nM

Consider the additional compound presented here.
Exercise: What does the record list as IC50 for N#Cc1cncc(COc2cc(O[C@H]3CCc4c(-c5cccc(OCCCN6CCC(F)CC6)c5Cl)cccc43)c(Cl)cc2CN[C@H]2CCOC[C@@H]2O)c1 [drawing 235] ?
Solution: < 5 nM
